# MEASURED TARGET: Interleukin-5 (Mus musculus) (UniProt P04401)
# ASSAY NAME: Inhibition of IL-5 in mouse pro-B Y16 cells at 30 uM after 48 hrs by WST1 assay
# Type: cell-based
ASSAY METRIC: inhibition (%)

{"columns": ["MOLECULE", "MEASURED TARGET", "READOUT UNIT", "MEASURED VALUE"],
 "data": [
  ["O=c1c(/C=C/C(O)c2ccc(O)cc2)coc2cccc(OCC3CCCCC3)c12 (racemic)", "Interleukin-5 (Mus musculus) (UniProt P04401)", "%", 92.7],
  ["N#Cc1ccc(C(O)/C=C/c2coc3cccc(OCC4CCCCC4)c3c2=O)cc1 (racemic)", "Interleukin-5 (Mus musculus) (UniProt P04401)", "%", 94.4]
]}

(I) O=c1c(/C=C/C(O)c2ccc([N+](=O)[O-])cc2)coc2cccc(OCC3CCCCC3)c12 (racemic)
(II) O=C(/C=C/c1coc2cccc(OCC3CCCCC3)c2c1=O)c1ccc(F)cc1
(III) N#Cc1ccc(C(=O)/C=C/c2coc3cccc(OCC4CCCCC4)c3c2=O)cc1
Data request: Rank items: key inhibition, increasing. Please express your ranking as an ordered list of the labels.
Data returned: III, II, I

###

# MEASURED TARGET: Interleukin-5 (Mus musculus)
# Sequence (whole entry): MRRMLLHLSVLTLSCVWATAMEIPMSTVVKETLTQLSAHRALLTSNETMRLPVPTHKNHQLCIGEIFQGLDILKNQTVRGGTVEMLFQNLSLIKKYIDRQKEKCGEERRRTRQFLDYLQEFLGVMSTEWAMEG
# ASSAY NAME: Inhibition of IL-5 in mouse pro-B Y16 cells at 30 uM after 48 hrs by WST1 assay
# Format: cell-based
ASSAY METRIC: inhibition (%)

Reference set (3 entries):
{"columns": ["COMPOUND", "READOUT UNIT", "inhibition"],
 "data": [
  ["CC(C)(C)c1ccc(C(=O)/C=C/c2coc3cccc(OCC4CCCCC4)c3c2=O)cc1", "%", 99.2],
  ["Cc1ccc(C(=O)/C=C/c2coc3cccc(OCC4CCCCC4)c3c2=O)cc1", "%", 57.5],
  ["CC(C)(C)c1ccc(C(O)/C=C/c2coc3cccc(OCC4CCCCC4)c3c2=O)cc1 (racemic)", "%", 15.7]
]}

(A) O=c1c(/C=C/C(O)c2ccccc2)coc2cccc(OCC3CCCCC3)c12 (racemic)
(B) O=C(/C=C/c1coc2cccc(OCC3CCCCC3)c2c1=O)c1ccc([N+](=O)[O-])cc1
Data request: Identify the item whose inhibition is the smaller number: A or B Reply briefly: the label of your chosen item.
Data returned: B
(B: 11.8%, A: 93.9%)

(P) Cc1ccc(C(O)/C=C/c2coc3cccc(OCC4CCCCC4)c3c2=O)cc1 (racemic)
(Q) O=C(/C=C/c1coc2cccc(OCC3CCCCC3)c2c1=O)c1ccc(C(F)(F)F)cc1
Data request: Kindly identify the item with the lower inhibition figure among these two: P and Q Pick one; state its label.
Data returned: Q

###

# MEASURED TARGET: Interleukin-5 (Mus musculus) (UniProt P04401)
# ASSAY NAME: Inhibition of IL-5 in mouse pro-B Y16 cells at 30 uM after 48 hrs by WST1 assay
# Format: cell-based
ASSAY METRIC: inhibition (%)

Would you please look over these solved cases?
{"columns": ["COMPOUND", "MEASURED VALUE"],
 "data": [
  ["O=c1c(/C=C/C(O)c2ccc(C(F)(F)F)cc2)coc2cccc(OCC3CCCCC3)c12 (racemic)", 92.7],
  ["COc1ccc(C(=O)/C=C/c2coc3cccc(OCC4CCCCC4)c3c2=O)cc1", 9.3],
  ["CC(C)COc1cccc2occ(/C=C/C(=O)c3ccc(O)cc3)c(=O)c12", 87.5],
  ["O=c1c(/C=C/C(O)c2ccc(Cl)cc2)coc2cccc(OCC3CCCCC3)c12 (racemic)", 93.5],
  ["CC(C)COc1cccc2occ(/C=C/C(O)c3ccc(O)cc3)c(=O)c12 (racemic)", 20.6],
  ["COc1cccc2occ(/C=C/C(O)c3ccc(O)cc3)c(=O)c12 (racemic)", 21.3]
]}

(1) O=c1c(/C=C/C(O)c2ccc(F)cc2)coc2cccc(OCC3CCCCC3)c12 (racemic)
(2) O=C(/C=C/c1coc2cccc(OCC3CCCCC3)c2c1=O)c1ccccc1
(3) COc1cccc2occ(/C=C/C(=O)c3ccc(O)cc3)c(=O)c12
Data request: Hey, quick one: sort these by inhibition, low to high? # respond with the labels, arranged in the requested order
Data returned: 2, 3, 1

###

# ASSAY NAME: Inhibition of IL-5 in mouse pro-B Y16 cells after 48 hrs by WST1 assay
ASSAY METRIC: IC50 (µM)
I only need the number, in µM, no unit after it.

Data request: Report IC50 for `O=c1c(-c2ccc(O)cc2)coc2cccc(OCC3CCCCC3)c12` please.
Data returned: 5.8

###

# MEASURED TARGET: UniProt:P04401
# ASSAY NAME: Inhibition of IL-5 in mouse pro-B Y16 cells at 30 uM after 48 hrs by WST1 assay
# Type: cell-based
ASSAY METRIC: inhibition (%)

{"columns": ["COMPOUND", "READOUT UNIT", "MEASURED VALUE"],
 "data": [
  ["COc1ccc(C(O)/C=C/c2coc3cccc(OCC4CCCCC4)c3c2=O)cc1 (racemic)", "%", 93.6]
]}

(I) O=C(/C=C/c1coc2cccc(OCC3CCCCC3)c2c1=O)c1ccc(O)cc1
(II) O=C(/C=C/c1coc2cccc(OCC3CCCCC3)c2c1=O)c1ccc(Cl)cc1
Data request: Pick one, I or II : lowest reported inhibition. Output the label that corresponds to your choice.
Data returned: II
(II: 46.3%, I: 99%)

Source: ChEMBL document CHEMBL2311523
